Values from patent US20240034783A1

target-under-test: T1, human CLDN18.2 (human)
T1 construct: also called huCLDN18.2; hCLDN18.2
test-name: flow cytometry, live cells from mouse tumor of A549 cells expressing CLDN18.2, antibody 4 µg/ml
result-type: % of positive tumor cells (Mouse 1) (%)
State the answer as a number, implicitly in %.

For orientation, consider the following solved cases.
- binder: "hCl1f (antibody, human IgG1, kappa, V domains shown, Humanized) VH: QVQLVQSGAEVKKPGASVKVSCKASGYTFTDYAMHWVRQAPGQRLEWMGWINAYTGKPTYAQKFQGRVTITRDTSASTAYMELSSLRSEDTAVYYCARAVFYGYTMDAWGQGTLVTVSS VL: DIQMTQSPSSLSASVGDRVTITCRASEDIYSNLAWYQQKPGKAPKLLIYSVKRLQDGVPSRFSGSGSGTDFTLTISSLQPEDFATYYCLQGSNFPLTFGQGTKVEIKR"
  % of positive tumor cells (Mouse 1) [%]: 32
- binder: "hCl1a (antibody, human IgG1, kappa, V domains shown, Humanized) VH: QVQLVQSGAEVKKPGASVKVSCKASGYTFTDYAMHWVRQAPGQRLEWMGWINTYTGKPTYAQKFQGRVTITRDTSASTAYMELSSLRSEDTAVYYCARAVFYGYTMDAWGQGTLVTVSS VL: DIQMTQSPSSLSASVGDRVTITCRASEDIYSNLAWYQQKPGKAPKLLIFSVKRLQDGVPSRFSGSGSGTDFTLTISSLQPEDFATYYCLQGSNFPLTFGQGTKVEIKR"
  % of positive tumor cells (Mouse 1) [%]: 34

Now for the binder whose % of positive tumor cells (Mouse 1) we want.
So for hCl1b (antibody, human IgG1, kappa, V domains shown, Humanized) VH: QVQLVQSGAEVKKPGASVKVSCKASGYTFTDYAMHWVRQAPGQRLEWMGWINTYTGKPTYSQKFQGRVTITRDTSASTAYMELSSLRSEDTAVYYCARAVFYGYTMDAWGQGTLVTVSS VL: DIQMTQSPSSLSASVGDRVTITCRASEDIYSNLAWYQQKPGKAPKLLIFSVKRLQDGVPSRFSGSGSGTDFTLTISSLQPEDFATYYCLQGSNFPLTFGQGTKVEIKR , the logged % of positive tumor cells (Mouse 1) turned out to be 43
